Biological target: Carbonic anhydrase (Saccharomyces cerevisiae S288c, UniProt P53615)
Sequence (P53615 whole entry): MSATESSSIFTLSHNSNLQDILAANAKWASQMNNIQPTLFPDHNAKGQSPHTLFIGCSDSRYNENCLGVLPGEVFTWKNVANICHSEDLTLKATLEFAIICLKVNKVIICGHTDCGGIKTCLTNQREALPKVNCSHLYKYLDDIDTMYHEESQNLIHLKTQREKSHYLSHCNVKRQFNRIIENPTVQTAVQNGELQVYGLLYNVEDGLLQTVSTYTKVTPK
Assay: Inhibition of Saccharomyces cerevisiae carbonic anhydrase by stopped-flow CO2 hydration assay
measurement.type: Ki (µM)
Give your result in µM as a bare value.

Task item: Return Ki for the following compound: CCOc1ccc2nc(S(N)(=O)=O)sc2c1 [ETHOXZOLAMIDE]
Reply: 16

====

Target: UniProt:P53615
Assay: Inhibition of Saccharomyces cerevisiae carbonic anhydrase overexpressed in Escherichia coli BL21 (DE3) by CO2 hydration stopped-flow assay
measurement.type: pKi
Note on units: pKi is unitless, being -log10 of a concentration expressed in mol/L.

Sample answers from the record:
NS(=O)(=O)O [SULFAMATE] ... 3.08
OB(O)c1ccccc1 [PHENYLBORONIC ACID] ... 1.42

Okay, next one:
Task item: Return pKi for the following compound: NS(N)(=O)=O [SULFAMIDE]
Reply: 5.06

The reported numbers originate from ChEMBL document CHEMBL1152192.
